molecular target: Mu-type opioid receptor (Rattus norvegicus)
measurement kind: pIC50
Give bare numbers, as −log10 of the molar value.

CN1CC[C@]23c4c5ccc(O)c4O[C@H]2[C@@H](O)C[C@H](SSc2ccc([N+](=O)[O-])cn2)C3[C@H]1C5 (some centres not stated) :: 7.24

// moving on: another record for pIC50
pIC50 measured on CN1CC[C@]23c4c5ccc(O)c4O[C@H]2[C@H](SSc2ccc([N+](=O)[O-])cn2)CCC3C1C5 (some centres not stated) = 7.51

----------
biological target: Mu-type opioid receptor (Rattus norvegicus, UniProt P33535); assay: Compound was evaluated for its binding affinity to mu opioid receptors in rat brain
Sequence (P33535 whole entry): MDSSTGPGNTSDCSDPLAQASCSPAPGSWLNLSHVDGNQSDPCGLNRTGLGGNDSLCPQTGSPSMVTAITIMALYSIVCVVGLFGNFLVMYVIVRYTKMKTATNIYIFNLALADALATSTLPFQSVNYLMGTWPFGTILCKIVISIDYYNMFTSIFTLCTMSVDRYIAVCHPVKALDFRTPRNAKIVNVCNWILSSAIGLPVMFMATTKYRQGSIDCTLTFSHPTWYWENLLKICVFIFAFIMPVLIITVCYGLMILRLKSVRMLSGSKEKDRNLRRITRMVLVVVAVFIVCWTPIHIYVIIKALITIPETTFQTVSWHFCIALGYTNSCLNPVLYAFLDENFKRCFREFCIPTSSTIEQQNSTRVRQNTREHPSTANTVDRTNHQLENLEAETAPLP
Give pEC50 for every item shown.
One number for each entry, as −log10 of the molar value.

CN1CC[C@]23c4c5ccc(O)c4O[C@H]2[C@H](SSc2ccc([N+](=O)[O-])cn2)CCC3C1C5 (some centres not stated) :: 7.24

// moving on: another record for pEC50
pEC50 measured on CN1CC[C@]23c4c5ccc(O)c4O[C@H]2[C@@H](O)C[C@H](SSc2ccc([N+](=O)[O-])cn2)C3[C@H]1C5 (some centres not stated) = 5.77
